biological target: Neuropeptide S receptor (Homo sapiens); experiment: qHTS Assay for Antagonists of the Neuropeptide S Receptor: cAMP Signal Transduction; conditions: CHO-NPSR cells, cAMP TR-FRET, antagonist mode; series mostly up to 38.3 µM; note: nearly all actives have a fitted effect of over 50% in size
Out of some 220,000 compounds screened, about 2,300 (1%) were called active. Roughly 6% stayed inconclusive and do not appear here. Calls come from the whole dose curve; as a rule, active = well fitted inhibition curve with a large enough effect; inconclusive = small, poorly fitted or top-dose-only effect, or effect the other way; inactive = no such curve, though single readings can be large or run the other way. Shown is part of a subset that was picked to be rich in actives.
Can you answer with just one of these options? 1.0 = active, 0.0 = inactive

Past entries and their recorded results:
compound	assigned.category
CC(=O)Oc1ccccc1C(=O)Nc1ncc([N+](=O)[O-])s1	1.0
O=c1[nH]c(=O)n(-c2ccc(F)cc2)c(O)c1C=NCCN1CCCCC1	0.0
CC(=O)Cc1ccc(OC(C)C)cc1	0.0
O=C1NC(=O)N(c2ccc(F)cc2)C(=O)/C1=C/c1ccc2c(c1)CCCN2Cc1ccccc1	0.0

In this assay, the call recorded for CC1C2Cn3c(nc4ccccc43)C1N(C)O2 (stereo not drawn) was what?
0.0

In this assay, the call recorded for Cc1cccc(N2C(=O)NC(=O)/C(=C\c3cnn(-c4ccccc4)c3)C2=O)c1 was what?
1.0

In this assay, the call recorded for COc1ccc(-n2c(O)c(C(C)=Nc3ccc4c(c3)CCC4)c(=O)[nH]c2=O)cc1 was what?
0.0

In this assay, the call recorded for CC1=C2C(=O)C3C(CC=C4CC(OC5OC(O)C(O)C(O)C5CO)CCC43C)C2CCC12OC1CC(C)CNC1C2C (stereo not drawn) was what?
0.0

In this assay, the call recorded for CNC(=O)Nc1ccc(C(O)(C(=O)OC)C(F)(F)F)cc1 (stereo not drawn) was what?
0.0

In this assay, the call recorded for COc1cccc(CN2CCCC(C(=O)c3ccccc3SC)C2)c1O (stereo not drawn) was what?
0.0

In this assay, the call recorded for CN(C)CC1CCCCC1=O (stereo not drawn) was what?
0.0

In this assay, the call recorded for CCCCCCCCCCCCn1ccc(=N)cc1 was what?
1.0

In this assay, the call recorded for COc1cccc(N2C(=O)NC(=O)/C(=C\c3ccc([N+](=O)[O-])s3)C2=O)c1 was what?
0.0
